Hello, the source for this data is patent US20250262167A1, in case you need it.

Test system: human monocyte-derived macrophages (hMDMs)
assay-procedure: High throughput phenotypic screen of macrophage activation (cell shape, Z-score);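 note: phalloidin and DAPI stained hMDMs imaged by high-content microscopy, cell eccentricity compared with DMSO control by T-test, round morphology scored negative, elongated positive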
Type: cell-based
settings: compounds regulating actin-cytoskeleton
Structures can show the parent of a compound that is named as a salt.

compound: COc1cc2c(c(OC)c1OC)-c1ccc(OC)c(=O)cc1[C@@H](NC(C)=O)CC2
activation state induced in the screen: M2-activating

compound: COC(=O)Nc1nc2ccc(SC(C)C)cc2[nH]1
activation state induced in the screen: M1-activating

compound: CC[C@]1(O)C[C@@H]2CN(CCc3c([nH]c4ccccc34)[C@@](C(=O)OC)(c3cc4c(cc3OC)N(C)[C@H]3[C@@](O)(C(=O)OC)[C@H](OC(C)=O)[C@]5(CC)C=CCN6CC[C@]43[C@@H]65)C2)C1 [vinblastine sulfate]
activation state induced in the screen: M2-activating

compound: COc1cc([C@@H]2c3cc4c(cc3[C@H](O)[C@H]3COC(=O)[C@H]23)OCO4)cc(OC)c1OC
activation state induced in the screen: M2-activating

compound: CCCCc1ccc2[nH]c(NC(=O)OC)nc2c1
activation state induced in the screen: M1-activating
